I'd be grateful if you could share measured EC50/pM (in vitro potency, cAMP formation, AlphaScreen) for these entries.
target-or-test-system: human GLP-1 receptor (human, UniProt P43220 24-463)
assay-info: cell-based or functional assay
Numbered stars: 1 amine (or outer) side, 2 acyl side, 3 side chain; on linkers, the order of the positions; unused ones are H or OH. Side chains are listed from the residue outwards. Ends that are not written are not given here. * marks the point of attachment. Decanoyl(10-(4-HOOC-PhO)) = O=C(O)c1ccc(OCCCCCCCCCC(=O)*)cc1; γGlu = O=C(O)[C@H](CCC(=O)[*:2])N[*:1]; C14 diacid = O=C(O)CCCCCCCCCCCCC(=O)*; AEEA = NCCOCCOCC(=O)O
I only need the number, in pM, no unit after it.

Field EC50/pM (in vitro potency, cAMP formation, AlphaScreen) (entry HAEGTFTSDVSSYLEEQK([γGlu-AEEA-AEEA-C14 diacid])ARK([γGlu-AEEA-AEEA-C14 diacid])FIAHLVG (also called 22) ) reads 1180

Field EC50/pM (in vitro potency, cAMP formation, AlphaScreen) (entry HAEGTFTSDVSSYLEEQAAHK([AEEA-AEEA-γGlu-Decanoyl(10-(4-HOOC-PhO))])FIEWLVRGK([AEEA-AEEA-γGlu-Decanoyl(10-(4-HOOC-PhO))])GE (also called 21) ) reads 52

Field EC50/pM (in vitro potency, cAMP formation, AlphaScreen) (entry HAEGTFTSDVSSYLEGQAARK([AEEA-AEEA-γGlu-Decanoyl(10-(4-HOOC-PhO))])FIEWLVRGK([AEEA-AEEA-γGlu-Decanoyl(10-(4-HOOC-PhO))])GE ) reads 96

Field EC50/pM (in vitro potency, cAMP formation, AlphaScreen) (entry HAEGTFTSDVSSYLEK([AEEA-AEEA-γGlu-C14 diacid])QAVRK([AEEA-AEEA-γGlu-C14 diacid])FIEWLVQGRG (also called 11) ) reads 81

Attribution: patent US9266940
